system: HBV (HepG2.117 cell line, inducibly HBV producing); test: Anti-HBV activity: intracellular HBV DNA by real-time PCR in HepG2.117 cells after 3 days of treatment; format: cell-based, hepatitis B virus; conditions: Hepatitis B virus, HepG2.117, 72 h, HepG2.117 cells, 3 days of treatment, intracellular HBV DNA by real-time PCR; mean value; read-out: EC50 (μM, mean value)
Can you tell me EC50 for the items I'm about to list?
Write down the numeric answer in µM and omit the unit.

Inquiry: Would you mind telling me what EC50 value was observed for COc1ccc(CNc2nc3c(c(=O)[nH]2)CCN(C(=O)c2ccc(I)cc2)C3)cc1 [Compound C117] ?
Reply text: 9.61

Inquiry: Try this molecule too: O=C(c1ccc(Cl)c(Cl)c1)N1CCc2c(nc(NCc3ccccc3)[nH]c2=O)C1 [Compound C21]
Reply text: 7.51

Inquiry: Try this molecule too: CNC(=O)c1ccc(-n2c(N[C@H](C)c3ccnn3C)nc3c(c2=O)C[C@@H](C)N(C(=O)c2ccc(Cl)c(Cl)c2)C3)cc1 (single isomer, unassigned) [Compound C372a]
Reply text: 5.42

Inquiry: Try this molecule too: CC(C)Nc1nc2c(c(=O)n1-c1ccc(S(C)(=O)=O)cc1)CCN(C(=O)c1cc3ccccc3s1)C2 [Compound C182]
Reply text: 3.14

Inquiry: Try this molecule too: CC(=O)c1ccc(-n2c(NC(C)C)nc3c(c2=O)CCN(C(=O)c2ccc(Cl)c(Cl)c2)C3)cc1 [Compound C127]
Reply text: 1.28

Inquiry: Try this molecule too: CNC(=O)[C@H]1CC[C@H](n2c(NC(C)C)nc3c(c2=O)C[C@@H](C)N(C(=O)c2ccc(Cl)c(Cl)c2)C3)CC1 [Compound C255]
Reply text: 0.09

Inquiry: Try this molecule too: CNC(=O)c1ccc(-n2c(NC3CC3)nc3c(c2=O)C[C@@H](C)N(C(=O)c2ccc(Cl)c(Cl)c2)C3)cc1 [Compound C329]
Reply text: 0.55

Inquiry: Try this molecule too: CC(C)Nc1nc2c(c(=O)n1-c1ccc(-c3ncco3)cc1)CCN(C(=O)c1ccc(Cl)c(Cl)c1)C2 [Compound C162]
Reply text: 0.47

Inquiry: Try this molecule too: CNC(=O)c1ccc(-n2c(N[C@@H](C)C3CC3)nc3c(c2=O)C[C@@H](C)N(C(=O)c2ccc(Cl)c(Cl)c2)C3)cc1 [Compound C294]
Reply text: 0.05

Inquiry: Try this molecule too: CNC(=O)c1ccc(-n2c(N[C@H](C)CO)nc3c(c2=O)C[C@@H](C)N(C(=O)c2ccc(Cl)c(Cl)c2)C3)cc1 [Compound C330]
Reply text: 0.9

Inquiry: Try this molecule too: CNC(=O)c1ccc(-n2c(NC34CC(C3)C4)nc3c(c2=O)C[C@@H](C)N(C(=O)c2ccc(Cl)c(Cl)c2)C3)cc1 [Compound C251]
Reply text: 0.25

Inquiry: Try this molecule too: CC(C)Nc1nc2c(c(=O)n1-c1ccc(S(C)(=O)=O)cc1)CCN(C(=O)c1ccc3sccc3c1)C2 [Compound C164]
Reply text: 0.24

Inquiry: Try this molecule too: COc1ccc(CNc2nc3c(c(=O)n2-c2cccnc2C)CCN(C(=O)c2ccc(Cl)c(Cl)c2)C3)cc1 [Compound C96]
Reply text: 0.65

* * *

assay: in vitro; type: cell-based; conditions: human, HepG2 or HepG2.117 cells, ATPlite, 3-days incubation (not marked with *), mean value
Can you tell me CC50 at 3 days for the items I'm about to list?

Inquiry: Would you mind telling me what CC50 at 3 days value was observed for CNC(=O)c1ccc(-n2c(NCc3cnnn3C)nc3c(c2=O)C[C@@H](C)N(C(=O)c2ccc(Cl)c(Cl)c2)C3)cc1 ?
Reply text: > 50 µM

Inquiry: Try this molecule too: CNC(=O)c1ccc(-n2c(NC(C)C)nc3c(c2=O)C[C@@H](C)N(C(=O)c2cc4ccc(Br)c(F)c4[nH]2)C3)cc1
Reply text: 25.8 µM

Inquiry: Try this molecule too: CNC(=O)c1ccc(-n2c(NC(C)c3cc(C)no3)nc3c(c2=O)C[C@@H](C)N(C(=O)c2ccc(Cl)c(Cl)c2)C3)cc1 (stereo partly drawn)
Reply text: > 50 µM

Inquiry: Try this molecule too: CNC(=O)c1ccc(-n2c(NCC(C)c3nncn3C)nc3c(c2=O)C[C@@H](C)N(C(=O)c2ccc(Cl)c(Cl)c2)C3)cc1 (stereo partly drawn)
Reply text: > 50 µM

Inquiry: Try this molecule too: CC(C)Nc1nc2c(c(=O)n1-c1ccc(-n3cnnn3)cc1)C[C@@H](C)N(C(=O)c1ccc(Cl)c(Cl)c1)C2
Reply text: > 50 µM

Inquiry: Try this molecule too: CNC(=O)c1ccc(-n2c(NC(C)C)nc3c(c2=O)C[C@@H](C)N(C(=O)c2cc(C#N)c[nH]2)C3)cc1
Reply text: > 50 µM

Inquiry: Try this molecule too: CNC(=O)c1cc(-n2c(N[C@@H](C)c3ccc(F)cc3)nc3c(c2=O)C[C@@H](C)N(C(=O)c2ccc(Cl)c(Cl)c2)C3)nn1C
Reply text: > 50 µM

Inquiry: Try this molecule too: CNC(=O)c1ccc(-n2c(N[C@@H](C)c3ccc(C(F)(F)F)cc3)nc3c(c2=O)C[C@@H](C)N(C(=O)c2ccc(Cl)c(C(F)F)c2)C3)cc1
Reply text: 23.2 µM

Inquiry: Try this molecule too: CNC(=O)c1ccc(-n2c(NC(C)C)nc3c(c2=O)C[C@@H](C)N(C(=O)c2ccc(Cl)c(C#N)c2)C3)cc1
Reply text: > 50 µM

Inquiry: Try this molecule too: CNC(=O)c1ccc(-n2c(N[C@H]3C[C@@H]3c3ccc(OC)cc3)nc3c(c2=O)C[C@@H](C)N(C(=O)c2ccc(Cl)c(Cl)c2)C3)cc1
Reply text: > 50 µM

Inquiry: Try this molecule too: CNC(=O)c1ccc(-n2c(N[C@H](C)c3ccc(C(F)(F)F)c(Cl)c3)nc3c(c2=O)C[C@@H](C)N(C(=O)c2ccc(Cl)c(Cl)c2)C3)cc1 (single isomer, unassigned) [Compound C664a]
Reply text: 6.7 µM

Inquiry: Try this molecule too: CNC(=O)c1ccc(-n2c(NC(C)C)nc3c(c2=O)C[C@@H](C)N(C(=O)c2n[nH]c4ccc(Cl)cc24)C3)cc1
Reply text: > 50 µM

* * *

Tested on: HBV (HepG2.117 cell line, inducibly HBV producing)
Test: Anti-HBV activity: intracellular HBV DNA by real-time PCR in HepG2.117 cells after 3 days of treatment
Assay type: cell-based, hepatitis B virus
Settings: Hepatitis B virus, HepG2.117, 72 h, HepG2.117 cells, 3 days of treatment, intracellular HBV DNA by real-time PCR; mean value; read-out: EC50 (μM, mean value)
Protocol: The anti HBV activity was measured using the HepG2.117 cell line, a stable, inducibly HBV producing cell line, which replicates HBV in the absence of doxycycline (Tet-off system). The HepG2 cell line is available from ATCCR under number HB-8065. Transfection of the HepG2 cell line can be as described in Sun and Nassal 2006 Journal of Hepatology 45 (2006) 636-645 “Stable HepG2- and Huh7-based human hepatoma cell lines for efficient regulated expression of infectious hepatitis B virus”. […]
Can you tell me EC50 for the items I'm about to list?

Inquiry: Would you mind telling me what EC50 value was observed for Cc1nnc(-c2ccc(-n3c(NC(C)C)nc4c(c3=O)C[C@@H](C)N(C(=O)c3ccc(Cl)c(Cl)c3)C4)cc2)o1 [Compound C242] ?
Reply text: 0.28 µM

Inquiry: Try this compound too: CNC(=O)c1ccc(-n2c(N3CCC[C@H]3C3CC3)nc3c(c2=O)C[C@@H](C)N(C(=O)c2ccc(Cl)c(Cl)c2)C3)cc1 (single isomer, unassigned) [Compound C353]
Reply text: 0.11 µM

Inquiry: Try this compound too: Cc1noc(C)c1-c1ccc(-n2c(NC(C)C)nc3c(c2=O)C[C@@H](C)N(C(=O)c2ccc(Cl)c(Cl)c2)C3)cn1 [Compound C264]
Reply text: 0.26 µM

Inquiry: Try this compound too: C#C[C@H](C)Nc1nc2c(c(=O)n1-c1ccc(C(=O)NC)cc1)C[C@@H](C)N(C(=O)c1ccc(Cl)c(Cl)c1)C2 [Compound C302]
Reply text: 0.06 µM

Inquiry: Try this compound too: C[C@@H]1Cc2c(nc(NCc3cscn3)n(-c3ccc(S(C)(=O)=O)cc3)c2=O)CN1C(=O)c1ccc(Cl)c(Cl)c1 [Compound C146]
Reply text: 1.95 µM

Inquiry: Try this compound too: COc1ccc(CNc2nc3c(c(=O)n2-c2ccccc2OC)CC(C)N(C(=O)c2ccc(Cl)c(Cl)c2)C3)cc1 (centres unmarked) [Compound C36]
Reply text: 1.26 µM

Inquiry: Try this compound too: COc1ccc(CNc2nc3c(c(=O)n2-c2ccc(S(C)(=O)=O)cc2)CCN(C(=O)c2ccc(Cl)c(Cl)c2)C3)cc1 [Compound C84]
Reply text: 0.57 µM

Inquiry: Try this compound too: COc1ccccc1-n1c(NCc2ccccc2)nc2c(c1=O)CCN(C(=O)c1ccc(Cl)c(Cl)c1)C2 [Compound C10]
Reply text: 6.21 µM

Inquiry: Try this compound too: COc1ccc(CNc2nc3c(c(=O)[nH]2)CCN(C(=O)c2ccc(Cl)c(F)c2)C3)cc1 [Compound C106]
Reply text: 21.1 µM

Inquiry: Try this compound too: COc1ccccc1-n1c(N[C@@H](C)c2ccccc2)nc2c(c1=O)CCN(C(=O)c1ccc(Cl)c(Cl)c1)C2 [Compound C35]
Reply text: 1.41 µM

Inquiry: Try this compound too: CC(C)Nc1nc2c(c(=O)n1-c1ccc(C(N)=O)cc1)C[C@@H](C)N(C(=O)c1ccc(Cl)c(Cl)c1)C2 [Compound C195]
Reply text: 0.16 µM

Inquiry: Try this compound too: COc1ccccc1-n1c(NCc2ccncc2)nc2c(c1=O)CCN(C(=O)c1ccc(Cl)c(Cl)c1)C2 [Compound C5]
Reply text: 5.35 µM

Inquiry: Try this compound too: CC(C)Nc1nc2c(c(=O)n1-c1ccc(S(C)(=O)=O)cc1)CCN(C(=O)c1cc3cc(F)ccc3[nH]1)C2 [Compound C136]
Reply text: 0.24 µM

Inquiry: Try this compound too: CNC(=O)c1ccc(-n2c(N[C@H](C)c3cccnc3OC)nc3c(c2=O)C[C@@H](C)N(C(=O)c2ccc(Cl)c(Cl)c2)C3)cc1 (single isomer, unassigned) [Compound C285]
Reply text: 0.37 µM

Inquiry: Try this compound too: Cc1c(C(=O)N2CCc3c(nc(NC(C)C)n(-c4ccc(S(C)(=O)=O)cc4)c3=O)C2)[nH]c2ccccc12 [Compound C147]
Reply text: 1.88 µM

Inquiry: Try this compound too: COc1ccccc1-n1c(N[C@H](C)CO)nc2c(c1=O)CCN(C(=O)c1ccc(Cl)c(Cl)c1)C2 (single isomer, unassigned) [Compound C62A]
Reply text: 9.88 µM

Inquiry: Try this compound too: Cc1nc(-c2ccc(-n3c(NC(C)C)nc4c(c3=O)C[C@@H](C)N(C(=O)c3ccc(Cl)c(Cl)c3)C4)c(Cl)c2)c[nH]1 [Compound C324]
Reply text: 0.41 µM

Inquiry: Try this compound too: COc1ccc(CNc2nc3c(c(=O)n2-c2cccc4ocnc24)CCN(C(=O)c2ccc(Cl)c(Cl)c2)C3)cc1 [Compound C148]
Reply text: 1.48 µM

Inquiry: Try this compound too: CC(C)Nc1nc2c(c(=O)n1-c1ccc(S(C)(=O)=O)cc1)CCN(C(=O)c1ccc(Cl)c(C3CC3)c1)C2 [Compound C225]
Reply text: 3.46 µM

Inquiry: Try this compound too: COc1ccccc1-n1c(N(C)C)nc2c(c1=O)CCN(C(=O)c1ccc(Cl)c(Cl)c1)C2 [Compound C46]
Reply text: 6.49 µM

Inquiry: Try this compound too: CC(C)Nc1nc2c(c(=O)n1-c1ccc(N3CCOCC3)cc1)CCN(C(=O)c1ccc(Cl)c(Cl)c1)C2 [Compound C130]
Reply text: 0.48 µM

Inquiry: Try this compound too: CC(C)Nc1nc2c(c(=O)n1-c1ccc(-n3cccn3)cc1)C[C@@H](C)N(C(=O)c1ccc(Cl)c(Cl)c1)C2 [Compound C166]
Reply text: 0.11 µM

Inquiry: Try this compound too: CNC(=O)c1cc(Cl)c(-n2c(NC(C)C)nc3c(c2=O)C[C@@H](C)N(C(=O)c2ccc(Cl)c(Cl)c2)C3)c(Cl)c1 [Compound C376]
Reply text: 0.09 µM

Inquiry: Try this compound too: COc1ccc(CNc2nc3c(c(=O)n2-c2ccc(S(C)(=O)=O)cc2)C[C@@H](c2ccc(F)cc2)N(C(=O)c2ccc(Cl)c(Cl)c2)C3)cc1 (single isomer, unassigned) [Compound C109A]
Reply text: > 50 µM

Inquiry: Try this compound too: COc1ccc(CNc2nc3c(c(=O)n2C2CCCN(S(C)(=O)=O)C2)CCN(C(=O)c2ccc(Cl)c(Cl)c2)C3)cc1 (centres unmarked) [Compound C83]
Reply text: 1.44 µM

Inquiry: Try this compound too: CNC(=O)c1ccc(-n2c(OC(C)C)nc3c(c2=O)C[C@@H](C)N(C(=O)c2ccc(Cl)c(Cl)c2)C3)cc1 [Compound C289]
Reply text: 0.08 µM
